assay: Cytotoxicity against CHOK1 cells assessed as cell viability at 640 ug/ml after 36 hrs by MTT assay; assay type: cell-based, Cricetulus griseus, CHO-K1; conditions: chinese hamster, CHO-K1 cells; read-out: Activity
readout_label: viability at 36 h, 640 ug/ml
Express the reported value numerically, then name its unit.

Entry under review: "H-ALSGKAFLRF-NH2" . Reported viability at 36 h, 640 ug/ml?
87%

====

assay: Toxicity in rabbit erythrocytes assessed as hemolysis up to 320 ug/ml; assay type: cell-based, Oryctolagus cuniculus, Erythrocyte; conditions: read-out: Activity
readout_label: hemolysis

Request the reported hemolysis associated with "H-ALSGKAFLRF-NH2"
< 1.5%

====

experiment: Toxicity in rabbit erythrocytes assessed as hemolysis; format: cell-based, Oryctolagus cuniculus, Erythrocyte; settings: read-out: HD50 (the source's name)
Starred links: 1 amine or outer side, 2 acyl side, 3 side chain; linkers in the order of their positions; H or OH if unused. Non-standard residues stand in square brackets, D forms with d. Residues, ends and D or L forms follow the SMILES beside them. *: point of attachment. azaβ3(1Nal) = O=C(CN(Cc1cccc2ccccc12)N[*:1])[*:2]; X1 = NC(=O)CN(Cc1cccc2ccccc12)N*
readout_label: HC50 (µg/mL)
Give bare numbers, in µg/mL.

Could you share which HC50 value was measured for CC(C)C[C@H](NC(=O)CN(Cc1cccc2ccccc12)NC(=O)[C@H](C)NC(=O)[C@H](CCCCN)NC(=O)CNC(=O)[C@H](CO)NC(=O)[C@H](CC(C)C)NC(=O)[C@H](C)N)C(=O)N[C@@H](CCCNC(=N)N)C(=O)NN(CC(N)=O)Cc1cccc2ccccc12 (H-ALSGKA[azaβ3(1Nal)]LR-X1) ?
200

====

test: Cytotoxicity against CHOK1 cells assessed as cell viability at 160 ug/ml after 36 hrs by MTT assay; type: cell-based, Cricetulus griseus; settings: chinese hamster, CHO-K1 cells; read-out: Activity
Starred links: 1 amine or outer side, 2 acyl side, 3 side chain; linkers in the order of their positions; H or OH if unused. Non-standard residues stand in square brackets, D forms with d. Residues, ends and D or L forms follow the SMILES beside them. *: point of attachment. azaβ3(1Nal) = O=C(CN(Cc1cccc2ccccc12)N[*:1])[*:2]; X1 = NC(=O)CN(Cc1cccc2ccccc12)N*
readout_label: viability at 36 h, 160 ug/ml (%)
Give bare numbers, in %.

# query: viability at 36 h, 160 ug/ml of entry CC(C)C[C@H](NC(=O)CN(Cc1cccc2ccccc12)NC(=O)[C@H](C)NC(=O)[C@H](CCCCN)NC(=O)CNC(=O)[C@H](CO)NC(=O)[C@H](CC(C)C)NC(=O)[C@H](C)N)C(=O)N[C@@H](CCCNC(=N)N)C(=O)NN(CC(N)=O)Cc1cccc2ccccc12 (H-ALSGKA[azaβ3(1Nal)]LR-X1)
78

====

Please respond with reported MIC for every item in the list.
test system: Salmonella typhimurium; experiment: Antibacterial activity against Salmonella typhimurium after 20 hrs by liquid growth inhibition assay; type: functional, Salmonella enterica subsp. enterica serovar Typhimurium; details: Salmonella enterica
Starred links: 1 amine or outer side, 2 acyl side, 3 side chain; linkers in the order of their positions; H or OH if unused. Non-standard residues stand in square brackets, D forms with d. Residues, ends and D or L forms follow the SMILES beside them. *: point of attachment. azaβ3(1Nal) = O=C(CN(Cc1cccc2ccccc12)N[*:1])[*:2]; X2 = O=C(CN(Cc1ccc2ccccc2c1)N[*:1])[*:2]; X1 = NC(=O)CN(Cc1cccc2ccccc12)N*; X3 = NC(=O)CN(Cc1ccc2ccccc2c1)N*
One number for each entry, in µg/mL.

CC1(C)S[C@@H]2[C@H](NC(=O)[C@H](N)c3ccccc3)C(=O)N2[C@H]1C(=O)O [AMPICILLIN] ... 5
CC(C)C[C@H](NC(=O)CN(Cc1ccc2ccccc2c1)NC(=O)[C@H](C)NC(=O)[C@H](CCCCN)NC(=O)CNC(=O)[C@H](CO)NC(=O)[C@H](CC(C)C)NC(=O)[C@H](C)N)C(=O)N[C@@H](CCCNC(=N)N)C(=O)N[C@@H](Cc1ccccc1)C(N)=O (H-ALSGKA[X2]LRF-NH2) ... 80
CC(C)C[C@H](NC(=O)CN(Cc1cccc2ccccc12)NC(=O)[C@H](C)NC(=O)[C@H](CCCCN)NC(=O)CNC(=O)[C@H](CO)NC(=O)[C@H](CC(C)C)NC(=O)[C@H](C)N)C(=O)N[C@@H](CCCNC(=N)N)C(=O)NN(CC(N)=O)Cc1cccc2ccccc12 (H-ALSGKA[azaβ3(1Nal)]LR-X1) ... 80

For the next question, use this molecule.
Item under review: CC(C)C[C@H](NC(=O)CN(Cc1ccc2ccccc2c1)NC(=O)[C@H](C)NC(=O)[C@H](CCCCN)NC(=O)CNC(=O)[C@H](CO)NC(=O)[C@H](CC(C)C)NC(=O)[C@H](C)N)C(=O)N[C@@H](CCCNC(=N)N)C(=O)NN(CC(N)=O)Cc1ccc2ccccc2c1 (H-ALSGKA[X2]LR-X3) . Reported MIC?
160
